// provenance: patent US20190367516A1

Consider the following compounds and their measured Emax readings.
Target: UniProtKB P08172
Sequence (P08172 whole entry): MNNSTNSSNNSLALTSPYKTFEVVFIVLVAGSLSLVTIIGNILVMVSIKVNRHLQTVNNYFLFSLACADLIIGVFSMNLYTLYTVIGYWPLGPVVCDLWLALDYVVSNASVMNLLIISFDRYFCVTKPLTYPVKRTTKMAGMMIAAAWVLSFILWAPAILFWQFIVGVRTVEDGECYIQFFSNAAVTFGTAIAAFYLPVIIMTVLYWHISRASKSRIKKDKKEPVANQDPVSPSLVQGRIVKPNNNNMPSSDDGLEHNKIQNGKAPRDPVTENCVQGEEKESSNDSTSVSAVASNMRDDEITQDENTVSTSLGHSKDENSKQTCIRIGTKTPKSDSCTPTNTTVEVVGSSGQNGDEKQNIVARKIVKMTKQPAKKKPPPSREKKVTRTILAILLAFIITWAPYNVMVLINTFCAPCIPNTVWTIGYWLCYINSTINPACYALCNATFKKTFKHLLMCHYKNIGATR
Conditions: read-out: Efficiency, boosting of the acetylcholine effect at EC20 acetylcholine concentration; M2-GIRK1/4 reporter cells
assay readout: Emax (%)

* CC(C)(CC(F)(F)F)NC(=O)c1cn(-c2c(F)cc(F)cc2F)c2nc(N3CC(O)C4(CC4)C3)ccc2c1=O (single isomer, unassigned) [Example 570] | 100
* CC(NC(=O)c1cn(-c2c(F)cc(F)cc2F)c2nc(N3C[C@@H](O)CC3=O)ccc2c1=O)(C1CC1)C(F)(F)F (mixture of isomers) [Example 508] | 93.5
* CC[C@@H](NC(=O)c1cn(-c2ccc(F)cc2F)c2nc(N3C(=O)CCC3C)ccc2c1=O)C(F)(F)F (single isomer, unassigned) [Example 427] | 91.5
* CC(NC(=O)c1cn(-c2c(F)cc(F)cc2F)c2nc(N3C[C@@H](O)[C@H](O)C3)ccc2c1=O)C1CCC1 (mixture of isomers) [Example 476] | 98
* CC[C@H](NC(=O)c1cn(-c2c(F)cc(F)cc2F)c2nc(N3CC4(COC4)C3)ccc2c1=O)C(F)(F)F [Example 498] | 83.5
* CN1CCN(c2ccc3c(=O)c(C(=O)N[C@@H](C4CC4)C(F)(F)F)cn(-c4c(F)cc(F)cc4F)c3n2)CC1 [Example 490] | 91.5
